- target: Muscarinic acetylcholine receptor M1 (Rattus norvegicus)
- assay.remarks: qHTS Assay for Antagonists of Acetylcholine Muscarinic M1 Receptor: Kinetic Measurement of Intracellular Calcium Response (AID 943);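 further: Fluo-4 calcium signal as peak divided by basal fluorescence over 4 min; nearly all actives have a fitted effect of over 75% in size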
- particulars: M1-expressing cells, kinetic intracellular calcium fluorescence; series mostly up to 35.3 µM
Inconclusive results are not listed. Activity calls are given as the source filed them. The call rests on the fitted dose curve; in most records, active means well fitted inhibition curve with a large enough effect; inconclusive means small, poorly fitted or top-dose-only effect; inactive means no such curve, though single readings can be large or run the other way.
parameter: outcome

CNC(=O)[C@@H]1O[C@@H](n2cnc3c(NCc4ccc(N)cc4)ncnc32)[C@@H](O)[C@H]1O = inactive
Nc1nc(Nc2ccccc2)nc2c1ncn2[C@@H]1O[C@@H](CO)[C@H](O)[C@@H]1O = inactive
Nc1ncnc2c1nc(Sc1ccc(Cl)cc1)n2[C@@H]1O[C@H]2COP(=O)(O)O[C@@H]2[C@H]1O = inactive
COc1ccccc1OC[C@H](O)CN1CCN(CC(=O)Nc2c(C)cccc2C)CC1 = inactive

Attention now shifts to the item below.
May I ask what outcome has been recorded for OC[C@@H]1O[C@@H](n2cnc3c(NC4CCCCC4)ncnc32)[C@@H](O)[C@H]1O ?
inactive

---

- target: Lysosomal acid glucosylceramidase (Homo sapiens) (UniProt P04062)
- Sequence (P04062 whole entry, looked up): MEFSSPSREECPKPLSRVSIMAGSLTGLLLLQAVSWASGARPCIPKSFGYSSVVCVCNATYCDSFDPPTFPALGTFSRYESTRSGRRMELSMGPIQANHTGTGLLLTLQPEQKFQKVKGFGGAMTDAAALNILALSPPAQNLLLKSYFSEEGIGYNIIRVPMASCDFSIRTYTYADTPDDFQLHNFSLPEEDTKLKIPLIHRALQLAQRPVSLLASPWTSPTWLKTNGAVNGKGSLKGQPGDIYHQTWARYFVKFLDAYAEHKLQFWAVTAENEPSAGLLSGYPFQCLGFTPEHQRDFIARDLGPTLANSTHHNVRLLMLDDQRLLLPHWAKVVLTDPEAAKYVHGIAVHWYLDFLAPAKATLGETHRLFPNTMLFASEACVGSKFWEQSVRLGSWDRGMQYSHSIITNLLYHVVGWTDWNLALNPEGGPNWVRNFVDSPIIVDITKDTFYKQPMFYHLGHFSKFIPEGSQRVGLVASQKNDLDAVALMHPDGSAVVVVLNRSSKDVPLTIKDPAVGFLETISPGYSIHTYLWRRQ
- assay.remarks: Glucocerebrosidase-p2 (AID 348); further: potency means the concentration at half of the fitted maximal effect
- particulars: purified GBA, blue fluorogenic substrate, 40 min
Calls of active or inactive are those of the source. Cut-off read from the data, not from the text of the source: active = potency below about 10 µM; inactive = the rest.
Classes to choose from: 1 = active, -1 = inactive

See these solved cases before continuing.
N#C/C(=C(\O)C(=O)O)c1ccc(-c2cccc3ccccc23)cc1 = -1
O=C(O)[C@H]1CCCC[C@@H]1c1c2ccc(=O)c(O)c-2oc2c(O)c(O)ccc12 = -1
O=C(O)CC1(CC(=O)O)Nc2ccccc2SC1=O = -1
N[C@@H](CSCc1ccc(I)cc1)C(=O)O = -1
CC(=O)CC(=O)Nc1ccc2ccccc2c1 = -1

Pending compound:
Name the outcome recorded for C[N+]1(CCN=C=NC2CCCCC2)CCOCC1 in the assay.
-1

---

- target: Cytochrome P450 2D6 (Homo sapiens)
- assay.remarks: qHTS Assay for Inhibitors and Substrates of Cytochrome P450 2D6 (AID 891); further: nearly all actives have a fitted effect of over 60% in size
- particulars: recombinant CYP2D6, luciferin-ME EGE luminescence; series mostly up to 11.4 µM
Inconclusive results are not listed. Activity calls are given as the source filed them. Calls come from the whole dose curve; as a rule, active = well fitted inhibition curve with a large enough effect; inconclusive = small, poorly fitted or top-dose-only effect; inactive = no such curve, though single readings can be large or run the other way.
Your answer must be one of the following: active, inactive

Here are 5 compounds together with their reported answers.
N[C@H](Cc1ccc(O)c(I)c1)C(=O)O = inactive
CC1=C(C(=O)O)N2C(=O)[C@@H](NC(=O)[C@@H](N)C3=CCC=CC3)[C@@H]2SC1 = inactive
Cc1cn([C@H]2C[C@H](O)[C@@H](COC(N)=O)O2)c(=O)[nH]c1=O = inactive
O=C(O)NCC1CCCCC1 (tested in a mixture with another compound) = active
Cc1cc(O)c(-c2cc(O)c(C)cc2O)cc1O = inactive

What did the test return for c1ccc(CCN2CCN=C2Cc2ccccc2)cc1 ?
active

Proceed to CN(C)CCCN1c2ccc3ccccc3c2Sc2cccc(Cl)c21
active

Follow-up item: CSc1ccc2c(c1)N(CCCN(C)C)c1ccccc1S2
active

Field entry: CC(C)[C@](N)(C(=O)O)c1ccccc1
inactive

---

- assay.remarks: Cell Viability - SH-SY5Y (AID 544);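 further: cells exposed to compound for 40 hours; nearly all actives have a fitted effect of over 55% in size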
- particulars: SH-SY5Y neuroblastoma cell viability
Records with an inconclusive call do not appear. Activity calls are given as the source filed them. Calls come from the whole dose curve; as a rule, active = well fitted cell-killing curve with a large enough effect; inconclusive = small, poorly fitted or top-dose-only effect; inactive = flat fitted curve, though single readings scatter.
Form entry, call: pick from active, inactive

O=[N+]([O-])c1ccccc1Nc1ccccc1 = inactive
c1ccc(SCCSc2ccccc2)cc1 = inactive
Cc1cc2nc(N)sc2cc1C = inactive
Cc1cc(-c2ccc(N=Nc3cc(S(=O)(=O)O)c4ccccc4c3N)c(C)c2)ccc1N=Nc1cc(S(=O)(=O)O)c2ccccc2c1N = active
O=C(OCc1ccccc1)c1ccccc1O = inactive

# input for lookup
// param item: Cc1ccc(C(=O)O)cc1[N+](=O)[O-] ; yields the recorded call
inactive

---

- target: Lysosomal acid glucosylceramidase (Homo sapiens) (UniProt P04062)
- assay.remarks: Glucocerebrosidase-p2 (AID 348); further: potency means the concentration at half of the fitted maximal effect
- particulars: purified GBA, blue fluorogenic substrate, 40 min
Activity calls are given as the source filed them. Cut-off read from the data, not from the text of the source: active = potency below about 10 µM; inactive = the rest.
parameter: Potency

Worked set:
Cc1ccc(C2=Nc3ccccc3S[C@@H](c3cccc([N+](=O)[O-])c3)C2)cc1 = > 11.4 µM (inactive)
N=C(c1ccc2ccccc2c1)c1ccccc1Cc1ccccc1 = > 11.4 µM (inactive)
COc1ccc2nc(NCN3C(=O)c4ccccc4C3=O)sc2c1 = > 11.4 µM (inactive)
C[C@H]1CCCC=CC2C[C@H](OC(=O)CN(C)C)C[C@@H]2[C@@H](O)/C=C\C(=O)O1 (stereo not given in full) = > 11.4 µM (inactive)

Entry under review: CC(C)(N)C(=O)N[C@@H]1C(=O)N2[C@@H]1SC(C)(C)[C@H]2C(=O)O . Reported Potency?
> 11.4 µM (inactive)

One more compound: CC(C)c1ccccc1S(=O)c1ccccc1C(C)(C)O (stereo not given)
> 11.4 µM (inactive)

And then CC(=O)[C@]1(O)CC[C@@H]2[C@H]3C[C@@H](C)C4=CC(=O)CC[C@@]4(C)[C@H]3[C@@H](O)C[C@]21C , what is it?
> 11.4 µM (inactive)

Thanks! And CN(C)Cc1cc(C(F)(F)F)ccc1C(O)(c1ccccc1)c1ccccc1 ?
> 11.4 µM (inactive)

Likewise for COc1ccc(OC)c(-c2cc(C(=O)O)c3cc4ccccc4cc3n2)c1 ?
> 11.4 µM (inactive)

Then this compound: C/C(=N/Nc1nc(C)cc(=O)[nH]1)C(=O)O
> 11.4 µM (inactive)

---

- target: Cytochrome P450 1A2 (Homo sapiens) (UniProt P05177)
- Sequence (P05177 whole entry, looked up): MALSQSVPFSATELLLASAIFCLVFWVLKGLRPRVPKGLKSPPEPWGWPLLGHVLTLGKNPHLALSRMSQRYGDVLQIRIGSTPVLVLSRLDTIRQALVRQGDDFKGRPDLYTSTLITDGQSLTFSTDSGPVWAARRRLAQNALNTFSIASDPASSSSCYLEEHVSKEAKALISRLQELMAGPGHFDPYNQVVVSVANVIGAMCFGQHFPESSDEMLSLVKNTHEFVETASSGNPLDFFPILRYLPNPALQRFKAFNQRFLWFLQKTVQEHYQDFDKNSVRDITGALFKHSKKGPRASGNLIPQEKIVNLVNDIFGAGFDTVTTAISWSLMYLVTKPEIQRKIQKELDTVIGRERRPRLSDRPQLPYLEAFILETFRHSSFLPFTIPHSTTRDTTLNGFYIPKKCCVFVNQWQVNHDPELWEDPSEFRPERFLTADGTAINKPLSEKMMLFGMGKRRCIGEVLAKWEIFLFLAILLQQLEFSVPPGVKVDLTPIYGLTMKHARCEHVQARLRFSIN
- assay.remarks: p450-cyp1a2 (AID 410)
- particulars: recombinant CYP1A2, luciferin-ME demethylation, luminescence; series mostly up to 11.4 µM
Results filed as inconclusive are left out. The source made the active and inactive calls. The call rests on the fitted dose curve.
Give one outcome, nothing more. List: 1 (active), -1 (inactive)

ON(CCc1ccccn1)Cc1ccccc1 = 1
Nc1ccc2[nH]cc(CCC(=O)O)c2c1 = -1

What was the test verdict on OCCNc1ncnc2nc[nH]c12 ?
-1

Param item: Cc1ncc(CN=Cc2ccc(Cl)cc2)c(N)n1
1

Then O[C@@H](c1cc(C(F)(F)F)nc2c(Cl)cc(Cl)cc12)[C@@H]1CCCCN1 ?
1

Repeat for the following compound: Cc1cc(O)c(C(C)C)cc1NC(=O)Nc1cccc2ccccc12
1

Quick one: Oc1ccc(Cc2nccc3cc(O)c(O)cc23)cc1O
1

---

- target: Guanine nucleotide-binding protein G(i) subunit alpha-1 (Homo sapiens) (UniProt P63096)
- Sequence (P63096 whole entry, looked up): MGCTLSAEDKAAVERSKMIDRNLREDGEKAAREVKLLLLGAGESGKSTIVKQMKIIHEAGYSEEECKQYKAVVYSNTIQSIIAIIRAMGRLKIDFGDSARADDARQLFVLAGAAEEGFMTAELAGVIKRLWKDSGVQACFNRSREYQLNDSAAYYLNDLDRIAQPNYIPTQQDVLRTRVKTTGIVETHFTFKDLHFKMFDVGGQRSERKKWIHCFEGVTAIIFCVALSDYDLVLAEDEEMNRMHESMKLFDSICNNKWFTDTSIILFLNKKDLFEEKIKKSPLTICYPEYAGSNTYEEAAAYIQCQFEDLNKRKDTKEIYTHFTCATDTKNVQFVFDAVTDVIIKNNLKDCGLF
- assay.remarks: qHTS Assay for Inhibitors of RGS12 GoLoco Motif Activity (Green Fluorophore) (AID 879);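 further: 0% = labeled peptide with Gαi1 and full inhibition = labeled peptide alone without protein; negative values mean loss of peptide binding seen as reduced polarization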
- particulars: Galphai1/FITC-RGS12 GoLoco peptide, fluorescence polarization; series mostly up to 57.1 µM
- Excerpt: Assay Overview: NIH Molecular Libraries Screening Centers Network [MLSCN] NIH Chemical Genomics Center [NCGC] MLSCN Grant: NS053754-01 Assay Provider: Siderovski, David P, University of North Carolina at Chapel Hill G-protein-coupled receptors (GPCRs) are major targets for drug discovery. […] Inhibitors of the binding are detected by a decrease in the fluorescence polarization (FP) of the fluorophore. […]
Activity calls are given as the source filed them. Calls follow the shape of the dose curve; as a rule, active = well fitted curve in the direction sought with a large enough effect; inconclusive = small, poorly fitted or top-dose-only effect, or another doubt; inactive = no such curve, though single readings can be large or run the other way.
parameter: outcome

Consider the reported outcome for these compounds:
O[C@H](CN1CCN(c2cccc(Cl)c2)CC1)C(c1ccccc1)c1ccccc1 = inactive
Nc1ncnc2c1nc(Sc1ccc(Cl)cc1)n2[C@@H]1O[C@H]2COP(=O)(O)O[C@@H]2[C@H]1O = inactive
C=C[C@@]1(C)CC(=O)[C@@]2(O)[C@@]3(C)[C@H](O)CCC(C)(C)[C@@H]3[C@H](O)[C@H](OC(C)=O)[C@]2(C)O1 = inactive
C[C@@H](CN1CCC(Cc2ccccc2)CC1)[C@H](O)c1ccc(O)cc1 = inactive

Look at this compound and give its reported outcome. Nc1nc(SCc2ccc([N+](=O)[O-])cc2)c2ncn([C@@H]3O[C@@H](CO)[C@@H](O)[C@H]3O)c2n1
inactive

For C[C@@H]1O[C@@H](n2cc(F)c(=O)[nH]c2=O)[C@H](O)[C@@H]1O then?
inactive

---

- target: Glucocorticoid receptor (Homo sapiens) (UniProt P04150)
- Sequence (P04150 whole entry, looked up): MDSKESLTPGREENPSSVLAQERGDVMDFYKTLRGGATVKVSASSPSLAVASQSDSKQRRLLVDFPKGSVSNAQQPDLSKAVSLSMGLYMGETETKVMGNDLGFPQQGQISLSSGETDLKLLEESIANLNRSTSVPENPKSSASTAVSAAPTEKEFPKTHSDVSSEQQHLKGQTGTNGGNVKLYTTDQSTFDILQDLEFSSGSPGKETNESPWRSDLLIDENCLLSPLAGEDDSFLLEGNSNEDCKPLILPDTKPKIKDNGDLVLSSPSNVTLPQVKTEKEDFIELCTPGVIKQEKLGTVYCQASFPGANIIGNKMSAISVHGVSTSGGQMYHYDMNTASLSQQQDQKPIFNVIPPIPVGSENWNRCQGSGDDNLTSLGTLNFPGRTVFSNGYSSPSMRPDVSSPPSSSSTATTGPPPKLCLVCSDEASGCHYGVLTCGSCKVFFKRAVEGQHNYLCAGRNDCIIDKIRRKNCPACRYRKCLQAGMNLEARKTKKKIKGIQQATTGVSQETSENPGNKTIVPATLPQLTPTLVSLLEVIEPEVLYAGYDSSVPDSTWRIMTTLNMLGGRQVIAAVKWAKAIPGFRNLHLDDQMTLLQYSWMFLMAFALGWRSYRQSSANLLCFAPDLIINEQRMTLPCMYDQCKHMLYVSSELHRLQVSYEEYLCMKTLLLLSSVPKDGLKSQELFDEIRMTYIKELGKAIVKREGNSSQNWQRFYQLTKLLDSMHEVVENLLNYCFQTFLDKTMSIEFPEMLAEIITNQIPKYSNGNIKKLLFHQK
- assay.remarks: GR-EFC Redistribution (AID 451); further: potency means the concentration at half of the fitted maximal effect
- particulars: CHO-K1 GR-EFC translocation, beta-gal luminescence, 2 h
Calls of active or inactive are those of the source. Calls follow the shape of the full dose curve.
A collection of compounds and their measured Potency

Name the reported Potency value associated with the compound CC(C)(C)c1cc2c(O)c(c1)Cc1cc(C(C)(C)C)cc(c1O)Cc1cc(C(C)(C)C)cc(c1O)Cc1cc(C(C)(C)C)cc(c1O)Cc1cc(C(C)(C)C)cc(c1O)Cc1cc(C(C)(C)C)cc(c1O)Cc1cc(C(C)(C)C)cc(c1O)Cc1cc(C(C)(C)C)cc(c1O)C2
> 9.22 µM (inactive)

---

- assay.remarks: qHTS assay for environmental chemicals that activate the Aryl hydrocarbon Receptor (AhR) signaling pathway (AID 651777); further: potency means the concentration at half of the fitted maximal effect; nearly all actives have a fitted effect of over 15% in size
- particulars: 1A2-DRE human hepatoma cells, luciferase, 24 h
Inconclusive results are not listed. The source made the active and inactive calls. Calls come from the whole dose curve; as a rule, active = well fitted activation curve with a large enough effect; inconclusive = small, poorly fitted or top-dose-only effect; inactive = flat fitted curve, though single readings scatter.
parameter: Potency

Tell me the measured Potency of CCN(CC)c1ccc(N)cc1 , please.
44.7 µM (active)

Similarly, Cc1ccc(O)c(N)c1 ?
50.1 µM (active)

# repeat for O=C(O)c1cc(N=Nc2ccc([N+](=O)[O-])cc2)ccc1O
4.47 µM (active)

Record: CCOc1ccc2nc(N)sc2c1
10 µM (active)

Measured values drawn from PubChem BioAssay (NCATS) for this set.
